Here's a roundup of pKd values tested on E3 ubiquitin-protein ligase Mdm2 (Homo sapiens, UniProt Q00987), taken from various published works.
Sequence (Q00987 whole entry): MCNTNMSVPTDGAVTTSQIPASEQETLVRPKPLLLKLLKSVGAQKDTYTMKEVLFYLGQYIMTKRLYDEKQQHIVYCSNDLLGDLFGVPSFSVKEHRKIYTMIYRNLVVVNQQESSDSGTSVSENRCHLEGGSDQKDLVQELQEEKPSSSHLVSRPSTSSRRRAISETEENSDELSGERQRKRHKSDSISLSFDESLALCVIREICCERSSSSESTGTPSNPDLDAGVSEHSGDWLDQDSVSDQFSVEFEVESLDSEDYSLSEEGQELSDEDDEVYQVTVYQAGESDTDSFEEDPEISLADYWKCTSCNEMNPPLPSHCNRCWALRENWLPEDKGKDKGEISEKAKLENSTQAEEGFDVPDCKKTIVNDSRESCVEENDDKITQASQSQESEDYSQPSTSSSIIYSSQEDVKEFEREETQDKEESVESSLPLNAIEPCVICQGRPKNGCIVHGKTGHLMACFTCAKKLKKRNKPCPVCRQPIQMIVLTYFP
pKd: −log10 of the molar value.
quantity name: pKd

These solved cases illustrate the format of a correct answer.
INSERT INTO results (molecule, result_number) VALUES
  ('COc1ccc(C2=NC(c3ccc(Cl)cc3)C(c3ccc(Cl)cc3)N2C(=O)N2CCN(C(=O)CCCNC(=O)CCCC(=O)N(CC#N)S(=O)(=O)c3ccccc3)CC2)c(OC(C)C)c1 (stereo unspecified)', 6.24),
  ('CC(=O)N[C@@H](CCCCN)C(=O)NCCCCCC(=O)N[C@H](C(=O)N[C@@H](CO)C(=O)N[C@@H](Cc1ccccc1)C(=O)N[C@]1(C)CCCCCC/C=C/CCC[C@@](C)(C(=O)N[C@@H](CCC(=O)O)C(=O)N[C@@H](CC(N)=O)C(=O)N[C@@H](Cc2ccccc2)C(N)=O)NC(=O)[C@H](CC(C)C)NC(=O)[C@H](CC(C)C)NC(=O)[C@H](C)NC(=O)[C@H](Cc2c[nH]c3ccccc23)NC(=O)[C@H](Cc2ccc(O)cc2)NC(=O)[C@H](CCC(=O)O)NC1=O)[C@@H](C)O', 7.82),
  ('CC(=O)N[C@@H](CC(C)C)CN(CC(=O)N[C@@H](Cc1ccccc1)CN(CC(=O)N[C@@H](CCC(=O)O)CN(CC(=O)N[C@@H](Cc1c[nH]c2ccccc12)CN(CC(=O)N[C@@H](CCCCN)CN(CC(=O)N[C@@H](CC1CCC1)CN(CC(=O)N[C@@H](C)CN(CC(N)=O)S(C)(=O)=O)S(=O)(=O)CC(C)C)S(C)(=O)=O)S(C)(=O)=O)S(C)(=O)=O)S(C)(=O)=O)S(=O)(=O)c1ccc(Cl)cc1', 7.59);

[P] Cc1ccc(NC(=O)Cn2cc(CN(C(=O)CCC(=O)OC(C)(C)C)C(C(=O)NC3CCCCC3)c3c[nH]c4cc(Cl)ccc34)nn2)c(C)c1 (stereo unspecified)
[Q] CCC[C@H]1N(C(=O)c2ncccc2C(F)(F)F)CCC[C@@]1(Oc1csc(C(F)(F)F)c1)C(=O)N1CCC(O)(c2ccccc2O[C@H](C)CCC2(C(=O)O)CCC2)CC1
Please indicate which entry, P or Q , has the lower recorded pKd value. Kindly state the label of the option you pick.
P
